Target chain: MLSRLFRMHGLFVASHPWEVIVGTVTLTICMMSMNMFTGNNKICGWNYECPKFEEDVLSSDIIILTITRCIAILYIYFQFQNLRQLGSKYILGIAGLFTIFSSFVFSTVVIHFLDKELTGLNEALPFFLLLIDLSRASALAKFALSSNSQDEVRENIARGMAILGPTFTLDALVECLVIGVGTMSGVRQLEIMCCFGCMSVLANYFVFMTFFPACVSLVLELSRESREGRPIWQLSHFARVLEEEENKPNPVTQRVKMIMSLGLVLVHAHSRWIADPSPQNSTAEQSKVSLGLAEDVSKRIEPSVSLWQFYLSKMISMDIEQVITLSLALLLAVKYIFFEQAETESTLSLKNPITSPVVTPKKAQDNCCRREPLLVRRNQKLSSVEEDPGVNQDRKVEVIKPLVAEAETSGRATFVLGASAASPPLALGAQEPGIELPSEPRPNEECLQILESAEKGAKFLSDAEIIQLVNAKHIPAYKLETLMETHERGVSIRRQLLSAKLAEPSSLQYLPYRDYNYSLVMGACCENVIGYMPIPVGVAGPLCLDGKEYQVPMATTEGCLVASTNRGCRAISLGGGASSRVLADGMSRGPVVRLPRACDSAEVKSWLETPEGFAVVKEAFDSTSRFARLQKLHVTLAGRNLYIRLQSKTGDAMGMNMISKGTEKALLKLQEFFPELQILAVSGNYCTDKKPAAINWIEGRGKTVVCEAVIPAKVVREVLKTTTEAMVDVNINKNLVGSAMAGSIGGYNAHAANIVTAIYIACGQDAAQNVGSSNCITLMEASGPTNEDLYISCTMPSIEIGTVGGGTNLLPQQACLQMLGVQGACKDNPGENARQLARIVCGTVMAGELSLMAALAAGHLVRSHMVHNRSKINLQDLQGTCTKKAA
value-type: pIC50
Kindly note that pIC50 refers to -log10 of the concentration in mol/L and answer with the value alone.

Example cases with answers are listed next.
molecule | measurement
COCCOc1cc(C(C)C)c(/C=C/C(O)CC(O)CC(=O)O)c(-c2ccc(F)cc2)c1OC (stereo not drawn) | 7.79
COc1cc(C(C)C)c(/C=C/C(O)CC(O)CC(=O)O)c(-c2ccc(F)cc2)c1OC (stereo not drawn) | 8.27

Ask: For the molecule COc1c(C)cc(C(C)C)c(/C=C/C(O)CC(O)CC(=O)O)c1-c1ccc(F)cc1 (stereo not drawn) , what pIC50 is on record?
Reply: 7.78

The origin of these recorded values is patent US5523460A.
